# TGT: HCN4 (Homo sapiens)
# Sequence (Q9Y3Q4 whole entry): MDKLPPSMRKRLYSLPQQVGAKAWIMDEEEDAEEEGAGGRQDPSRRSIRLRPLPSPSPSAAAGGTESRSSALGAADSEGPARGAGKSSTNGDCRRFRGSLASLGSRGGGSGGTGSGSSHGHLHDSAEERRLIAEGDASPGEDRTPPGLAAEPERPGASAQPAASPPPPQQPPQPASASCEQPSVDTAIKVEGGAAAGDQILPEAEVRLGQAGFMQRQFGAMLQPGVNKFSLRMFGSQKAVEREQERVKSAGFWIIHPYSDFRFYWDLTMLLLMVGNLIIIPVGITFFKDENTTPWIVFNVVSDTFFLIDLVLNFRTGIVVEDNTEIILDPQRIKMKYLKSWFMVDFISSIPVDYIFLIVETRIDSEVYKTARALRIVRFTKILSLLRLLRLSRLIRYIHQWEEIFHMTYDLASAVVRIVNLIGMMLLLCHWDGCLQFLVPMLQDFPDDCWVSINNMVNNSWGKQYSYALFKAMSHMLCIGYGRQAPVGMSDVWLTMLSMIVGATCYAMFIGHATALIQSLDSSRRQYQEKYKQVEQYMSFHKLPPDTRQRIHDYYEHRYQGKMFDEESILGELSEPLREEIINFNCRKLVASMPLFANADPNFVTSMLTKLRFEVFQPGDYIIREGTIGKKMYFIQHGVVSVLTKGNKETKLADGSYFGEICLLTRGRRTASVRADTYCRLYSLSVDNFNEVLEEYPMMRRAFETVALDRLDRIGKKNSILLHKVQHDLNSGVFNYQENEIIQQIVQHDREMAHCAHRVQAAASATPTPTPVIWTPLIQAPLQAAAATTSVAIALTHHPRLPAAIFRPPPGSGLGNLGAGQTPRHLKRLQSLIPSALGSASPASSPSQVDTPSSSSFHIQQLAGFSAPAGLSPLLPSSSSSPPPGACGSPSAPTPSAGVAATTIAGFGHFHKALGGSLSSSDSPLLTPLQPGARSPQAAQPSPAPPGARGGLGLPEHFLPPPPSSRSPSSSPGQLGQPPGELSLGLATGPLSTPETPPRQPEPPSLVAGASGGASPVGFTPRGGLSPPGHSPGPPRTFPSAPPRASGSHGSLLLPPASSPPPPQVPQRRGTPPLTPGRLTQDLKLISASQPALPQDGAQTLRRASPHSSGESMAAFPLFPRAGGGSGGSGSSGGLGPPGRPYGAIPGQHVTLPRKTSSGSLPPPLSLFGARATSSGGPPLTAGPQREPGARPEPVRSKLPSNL
# ASSAY: Inhibition of HCN4 (unknown origin) at 10 uM
# Assay type: toxicity
ASSAY_READOUT: inhibition at 10 µM

Request: Please give the measured inhibition at 10 µM for this compound: `FC(F)(F)c1nccc2cc(Nc3n[nH]c4ncccc34)ccc12`
Result: < 50%

====

# TGT: Metabotropic glutamate receptor 5 (Rattus norvegicus)
# Sequence (P31424 whole entry): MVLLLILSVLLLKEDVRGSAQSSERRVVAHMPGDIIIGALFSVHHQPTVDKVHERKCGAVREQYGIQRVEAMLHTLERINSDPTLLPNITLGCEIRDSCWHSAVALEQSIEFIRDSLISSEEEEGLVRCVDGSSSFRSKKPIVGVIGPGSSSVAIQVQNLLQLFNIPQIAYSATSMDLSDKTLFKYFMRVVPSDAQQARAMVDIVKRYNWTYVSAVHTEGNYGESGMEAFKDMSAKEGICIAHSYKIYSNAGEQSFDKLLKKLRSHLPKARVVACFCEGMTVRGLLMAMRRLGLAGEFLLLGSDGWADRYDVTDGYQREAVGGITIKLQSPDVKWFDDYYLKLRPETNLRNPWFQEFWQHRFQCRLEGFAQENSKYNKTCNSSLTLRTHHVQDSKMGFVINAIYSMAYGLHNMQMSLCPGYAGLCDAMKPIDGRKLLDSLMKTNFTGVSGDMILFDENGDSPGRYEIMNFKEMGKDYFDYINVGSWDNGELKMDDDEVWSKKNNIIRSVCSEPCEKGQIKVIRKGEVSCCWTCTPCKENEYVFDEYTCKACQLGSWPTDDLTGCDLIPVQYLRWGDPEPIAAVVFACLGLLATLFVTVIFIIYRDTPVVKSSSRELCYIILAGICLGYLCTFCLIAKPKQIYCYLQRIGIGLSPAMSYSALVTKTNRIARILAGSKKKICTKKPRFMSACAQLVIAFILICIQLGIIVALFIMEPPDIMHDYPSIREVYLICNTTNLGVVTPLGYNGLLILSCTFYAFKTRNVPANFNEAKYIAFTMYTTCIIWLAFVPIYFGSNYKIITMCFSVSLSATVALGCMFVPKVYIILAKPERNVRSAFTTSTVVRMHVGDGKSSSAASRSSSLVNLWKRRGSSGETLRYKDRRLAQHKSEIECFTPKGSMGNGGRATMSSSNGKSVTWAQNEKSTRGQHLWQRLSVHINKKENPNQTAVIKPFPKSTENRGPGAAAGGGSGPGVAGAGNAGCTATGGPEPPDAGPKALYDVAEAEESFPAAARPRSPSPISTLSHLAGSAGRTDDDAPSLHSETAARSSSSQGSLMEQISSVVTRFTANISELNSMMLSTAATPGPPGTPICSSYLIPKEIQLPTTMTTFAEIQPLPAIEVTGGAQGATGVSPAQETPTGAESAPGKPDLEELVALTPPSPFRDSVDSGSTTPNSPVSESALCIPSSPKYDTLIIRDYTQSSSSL
# ASSAY: Positive allosteric modulator activity at rat mGlu5 in human HEK cells assessed as increase in calcium flux preincubated for 2.5 mins followed by gluatamate addition by Fluo-4 AM dye based calcium mobilization assay
ASSAY_READOUT: EC50

Request: Please give the measured EC50 for this compound: `FC(F)(F)c1nccc2cc(Nc3n[nH]c4ncccc34)ccc12`
Result: > 10 µM

====

# TGT: Amine oxidase [flavin-containing] A (Homo sapiens)
# Sequence (P21397 whole entry): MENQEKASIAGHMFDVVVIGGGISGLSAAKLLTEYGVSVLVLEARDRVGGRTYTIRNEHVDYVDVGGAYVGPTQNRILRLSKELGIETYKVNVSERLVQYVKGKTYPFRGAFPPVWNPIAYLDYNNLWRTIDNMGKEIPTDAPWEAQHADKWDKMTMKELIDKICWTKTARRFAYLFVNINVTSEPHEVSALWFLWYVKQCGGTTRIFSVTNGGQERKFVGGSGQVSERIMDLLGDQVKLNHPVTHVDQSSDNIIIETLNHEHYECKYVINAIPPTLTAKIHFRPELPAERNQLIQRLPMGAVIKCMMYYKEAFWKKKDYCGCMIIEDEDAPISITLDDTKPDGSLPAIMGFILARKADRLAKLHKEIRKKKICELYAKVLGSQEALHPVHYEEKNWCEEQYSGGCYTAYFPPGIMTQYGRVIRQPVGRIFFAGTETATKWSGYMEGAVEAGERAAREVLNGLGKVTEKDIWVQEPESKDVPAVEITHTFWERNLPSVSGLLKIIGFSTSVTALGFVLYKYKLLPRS
# ASSAY: Binding affinity to MAO-A (unknown origin)
pEC50: −log10 of the molar value.
ASSAY_READOUT: pEC50

Request: Please give the measured pEC50 for this molecule: `FC(F)(F)c1nccc2cc(Nc3n[nH]c4ncccc34)ccc12`
Result: < 4.52

====

# ASSAY: Brain to plasma permeability coefficient, Kp in Sprague-Dawley rat at 0.2 mg/kg, iv and measured upto 24 hrs by LC-MS/MS analysis
# Type: ADME, organism-based
ASSAY_READOUT: Kp at 24 h
// no unit string in output, number only

Request: Please give the measured Kp at 24 h for this molecule: `FC(F)(F)c1nccc2cc(Nc3n[nH]c4ncccc34)ccc12`
Result: 1.51

====

# TGT: Metabotropic glutamate receptor 6 (Homo sapiens, UniProt O15303)
# Sequence (O15303 whole entry): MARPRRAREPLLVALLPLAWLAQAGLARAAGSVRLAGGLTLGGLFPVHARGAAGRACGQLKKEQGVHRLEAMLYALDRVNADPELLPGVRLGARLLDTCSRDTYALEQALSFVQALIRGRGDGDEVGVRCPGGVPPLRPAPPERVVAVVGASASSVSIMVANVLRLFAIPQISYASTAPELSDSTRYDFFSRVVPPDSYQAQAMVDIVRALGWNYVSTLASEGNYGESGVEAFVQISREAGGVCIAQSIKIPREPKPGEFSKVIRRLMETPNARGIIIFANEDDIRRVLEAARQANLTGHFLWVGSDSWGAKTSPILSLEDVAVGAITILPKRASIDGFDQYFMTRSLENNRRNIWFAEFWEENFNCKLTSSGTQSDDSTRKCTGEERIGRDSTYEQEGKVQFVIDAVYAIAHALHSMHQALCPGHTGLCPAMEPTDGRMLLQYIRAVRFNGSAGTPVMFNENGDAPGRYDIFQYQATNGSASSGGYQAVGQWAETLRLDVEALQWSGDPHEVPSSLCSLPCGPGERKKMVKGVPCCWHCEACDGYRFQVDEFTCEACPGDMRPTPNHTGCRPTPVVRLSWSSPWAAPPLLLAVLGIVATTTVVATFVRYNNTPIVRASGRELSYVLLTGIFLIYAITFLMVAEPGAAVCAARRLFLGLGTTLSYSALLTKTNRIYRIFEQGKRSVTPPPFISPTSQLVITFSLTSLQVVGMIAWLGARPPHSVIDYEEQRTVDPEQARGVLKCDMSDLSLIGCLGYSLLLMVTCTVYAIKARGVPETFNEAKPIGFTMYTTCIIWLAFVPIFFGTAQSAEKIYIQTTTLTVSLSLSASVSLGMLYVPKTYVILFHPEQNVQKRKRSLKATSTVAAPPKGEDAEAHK
# ASSAY: Positive allosteric modulator activity at human mGlu6 in human HEK cells co-expressing […] assessed as increase in by thallium flux preincubated for 2.5 mins followed by gluatamate addition by thallium flux assay
pEC50: −log10 of the molar value.
ASSAY_READOUT: pEC50

Request: Please give the measured pEC50 for this compound: `FC(F)(F)c1nccc2cc(Nc3n[nH]c4ncccc34)ccc12`
Result: < 5.00

====

# ASSAY: Unbound brain-to-plasma concentration ratio in Sprague-Dawley rat at 0.2 mg/kg, iv and measured upto 24 hrs by LC-MS/MS analysis
# Type: ADME, organism-based
# EXPERIMENTAL_CONTEXT: read-out: K(p,uu,brain)
ASSAY_READOUT: Kp uu at 24 h
// no unit string in output, number only

Request: Please give the measured Kp uu at 24 h for this molecule: `FC(F)(F)c1nccc2cc(Nc3n[nH]c4ncccc34)ccc12`
Result: 0.09

====

# TGT: Kv4.3/KChIP2 (Homo sapiens, UniProt Q9NS61+Q9UK17)
# Sequence (Q9UK17 whole entry): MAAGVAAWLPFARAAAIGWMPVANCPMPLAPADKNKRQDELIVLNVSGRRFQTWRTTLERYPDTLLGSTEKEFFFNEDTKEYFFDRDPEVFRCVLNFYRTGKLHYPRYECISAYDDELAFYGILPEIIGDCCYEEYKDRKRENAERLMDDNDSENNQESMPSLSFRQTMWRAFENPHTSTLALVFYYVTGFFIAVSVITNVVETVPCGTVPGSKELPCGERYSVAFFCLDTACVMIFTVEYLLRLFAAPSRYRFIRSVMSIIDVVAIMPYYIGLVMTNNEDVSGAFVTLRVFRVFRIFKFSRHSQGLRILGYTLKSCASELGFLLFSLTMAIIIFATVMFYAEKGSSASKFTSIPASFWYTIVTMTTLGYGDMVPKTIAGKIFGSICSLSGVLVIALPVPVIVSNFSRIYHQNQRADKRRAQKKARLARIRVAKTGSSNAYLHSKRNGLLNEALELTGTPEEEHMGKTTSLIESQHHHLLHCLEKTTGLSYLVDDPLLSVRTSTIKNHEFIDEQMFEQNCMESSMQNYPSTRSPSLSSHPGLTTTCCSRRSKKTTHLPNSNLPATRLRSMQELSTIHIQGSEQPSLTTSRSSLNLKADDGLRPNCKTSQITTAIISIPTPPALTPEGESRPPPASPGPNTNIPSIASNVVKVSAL
# Sequence (Q9NS61 whole entry): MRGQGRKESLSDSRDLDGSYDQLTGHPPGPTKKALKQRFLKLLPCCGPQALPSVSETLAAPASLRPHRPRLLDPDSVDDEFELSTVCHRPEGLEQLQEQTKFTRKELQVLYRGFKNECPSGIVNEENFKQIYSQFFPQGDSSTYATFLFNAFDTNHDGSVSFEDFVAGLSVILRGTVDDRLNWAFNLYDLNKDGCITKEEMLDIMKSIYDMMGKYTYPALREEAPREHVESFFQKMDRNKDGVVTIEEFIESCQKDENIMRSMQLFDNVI
# ASSAY: Inhibition of Kv4.3/KChIP2 (unknown origin) at 10 uM
# Assay type: toxicity
ASSAY_READOUT: inhibition at 10 µM

Request: Please give the measured inhibition at 10 µM for this compound: `FC(F)(F)c1nccc2cc(Nc3n[nH]c4ncccc34)ccc12`
Result: < 50%

Data origin, for the record: ChEMBL document CHEMBL5257040
